method: ATG_ERE_CIS: Attagene CIS-FACTORIAL HepG2 Assay for Estrogen Response Element (ERE) (AID 2282940)
experimental context: HepG2 ERE cis-reporter, Attagene RNA transcript; actives raise or lower the signal
Active and inactive are the calls of the source. Rule for the calls: active = hit-call score of the fitted dose curve at least 0.9, where 1 is the maximum; inactive = score below 0.9.
Pick from T for active, F for inactive when you respond.

-- ask Entry C=C(C)CN(CC)c1c([N+](=O)[O-])cc(C(F)(F)F)cc1[N+](=O)[O-] : call = ?
-- reply T

-- ask Give the logged outcome of this assay for the following compound: CCOc1cc(C(C)(C)C)ccc1C1COC(c2c(F)cccc2F)=N1 (stereo not given)
-- reply F

-- ask // param item: CC(C)=CC1C(C(=O)OCc2coc(Cc3ccccc3)c2)C1(C)C (stereo not given) ; yields the recorded call
-- reply T

-- ask In this assay, the call recorded for CCCC(=NOCC)C1=C(O)CC(CC(C)SCC)CC1=O (stereo not given) was what?
-- reply F

-- ask Which outcome was entered for the compound CC(C)Oc1cccc(NC(=O)c2ccccc2C(F)(F)F)c1 in this test?
-- reply T

-- ask // return assay outcome for O=C(Nc1ccccc1-c1ccc(Cl)cc1)c1cccnc1Cl
-- reply F

-- ask Give the logged outcome of this assay for the following compound: Cc1cc(C)nc(Nc2ccccc2)n1
-- reply F

-- ask Check the results log: what was the call for Clc1cccc(C(Cl)(Cl)Cl)n1 ?
-- reply F

-- ask Fill in: this test's call for CC(C)NC(=O)N1CC(=O)N(c2cc(Cl)cc(Cl)c2)C1=O is ___
-- reply T

-- ask Which outcome did this test record for the compound CN=C=S ?
-- reply F

-- ask So what was the verdict on CCNC(=O)NC(=O)C(C#N)=NOC in this test?
-- reply T

-- ask For COC(=O)N(C(=O)N1CO[C@@]2(C(=O)OC)Cc3cc(Cl)ccc3C2=N1)c1ccc(OC(F)(F)F)cc1 , what call appears in the results of this test?
-- reply F

-- ask # lookup: test call for CC(C)(C)C(=O)C(Oc1ccc(Cl)cc1)n1cncn1 (stereo not given)
-- reply T

-- ask Recorded test outcome, item N#CN=C1SCCN1Cc1ccc(Cl)nc1
-- reply F

-- ask Per the assay record, what outcome was assigned to CCOc1nc(C(Cl)(Cl)Cl)ns1 ?
-- reply F

-- ask For CC1(C)C(C(=O)OC(C#N)c2cccc(Oc3ccccc3)c2)C1(C)C (stereo not given) , which call appears in the assay record?
-- reply F

-- ask Record lookup: outcome of this test for CC(C)C1(C)N=C(c2ncccc2C(=O)O)NC1=O (stereo not given) ?
-- reply F

-- ask Which outcome did this test record for the compound COP(=S)(OC)Oc1ccc([N+](=O)[O-])c(C)c1 ?
-- reply T

-- ask Short answer needed: outcome of this test for Cc1nc(N(C)C)nc(OC(=O)N(C)C)c1C ?
-- reply F

-- ask What is the recorded call for this compound in the test? COc1ccc(-c2ccccc2)cc1NNC(=O)OC(C)C
-- reply F

-- ask Name the outcome recorded for CCOc1nc(F)cc2nc(S(=O)(=O)Nc3c(Cl)cccc3Cl)nn12 in the assay.
-- reply F

-- ask What classification did COC(=O)NS(=O)(=O)c1ccc(N)cc1 end up with in this test?
-- reply F

-- ask Outcome? O=C1C2CC=CCC2C(=O)N1SC(Cl)(Cl)Cl (stereo not given)
-- reply F

-- ask What outcome does the record of this test show for CCCCC(C#N)(Cn1cncn1)c1ccc(Cl)cc1 (stereo not given) ?
-- reply F

-- ask Which outcome was entered for the compound CO/N=C(/C1=NOCCO1)c1ccccc1Oc1ncnc(Oc2ccccc2Cl)c1F in this test?
-- reply F
